- Tested on: HMPV clinical isolate TN/1501/A1
- procedure.summary: HMPV antiviral assay Method-B (clinical isolate TN/1501/A1 in LLC-MK2 cells, ATP-Lite readout)
- Type: cell-based, Human metapneumovirus (HMPV)
- condition.description: human metapneumovirus, LLC-MK2, 144 h, hMPV WT1501 (clinical isolate TN/1501/A1), 6 days
measure: EC50

For orientation, consider the following solved cases.
[[record]]
mol_smiles = "COc1cc(C(=O)NC[C@](O)(c2cc3c(c(-c4ccc(F)c(Cl)c4)n2)OC[C@@]3(C(N)=O)C(F)F)C2CC2)cc2cn(C3CC3)nc12"
study_target = "HMPV clinical isolate TN/1501/A1"
test_value = "< 500 nM"

[[record]]
mol_smiles = "COc1cc(C(=O)NC[C@](O)(c2cc3c(c(-c4cnc(Cl)c(Cl)c4)n2)OC[C@]3(C)C(N)=O)C(F)(F)F)cc2cn(C(F)F)nc12"
study_target = "HMPV clinical isolate TN/1501/A1"
test_value = "> 500 nM"

[[record]]
mol_smiles = "COc1cc(C(=O)NC[C@](O)(c2cc3c(c(-c4ccc5c(c4)CC5)n2)OC[C@]3(C)C(N)=O)C(F)(F)F)cc2cn(C3CC3)nc12"
study_target = "HMPV clinical isolate TN/1501/A1"
test_value = "< 500 nM"

[[record]]
mol_smiles = "COc1cc(C(=O)NC[C@](O)(c2cc3c(c(-c4cc(Br)c(F)cc4F)n2)OC[C@]3(C)C(N)=O)C2CC2)cc2cn(C3CC3)nc12"
study_target = "HMPV clinical isolate TN/1501/A1"
test_value = "< 500 nM"

[[record]]
mol_smiles = "C[C@]1(C(N)=O)COc2c1cc([C@@](O)(CNC(=O)c1cc(Cl)c3nn(C4CC4)cc3c1)C1CC1)nc2-c1cc(F)c(Cl)cc1F"
study_target = "HMPV clinical isolate TN/1501/A1"
test_value = "< 500 nM"


# input for lookup
// sample `COc1cc(C(=O)NC[C@](O)(c2cc3c(c(-c4csc5ccc(F)cc45)n2)OC[C@]3(C)C(N)=O)C(F)(F)F)cc2cn(C3CC3)nc12` , its EC50 was > 500 nM

----------
- Tested on: HMPV clinical isolate TN/1501/A1
- procedure.summary: HMPV antiviral assay Method-B (clinical isolate TN/1501/A1 in LLC-MK2 cells, ATP-Lite readout)
- Format: cell-based, Human metapneumovirus (HMPV)
- condition.description: human metapneumovirus, LLC-MK2, 144 h, hMPV WT1501 (clinical isolate TN/1501/A1), 6 days
measure: EC50

[[record]]
compound = "COc1cc(C(=O)NC[C@](O)(c2cc3c(c(-c4ccc(F)cc4)n2)OC[C@]3(C)C(N)=O)C(F)(F)F)cc2c(=O)n(C3CC3)[nH]c12 [Example 876]"
measure = "EC50"
test_value = "> 500 nM"


Sure, the documented EC50 for COc1cc(C(=O)NC[C@](O)(c2cc3c(c(-c4cccc5c4OC(F)(F)O5)n2)OC[C@]3(C)C(N)=O)C(F)(F)F)cc2cn(C3CC3)nc12 [Example 928] is > 500 nM

Value of measured EC50 for the entry COc1cc(C(=O)NC[C@](O)(c2cc3c(c(-c4cccc(F)c4Cl)n2)OC[C@]3(C)C(N)=O)C2CC2)cc2cc(Br)cnc12 [Example 1124] : < 500 nM

Per the records, this compound ( COc1cc(C(=O)NC[C@](O)(c2cc3c(c(-c4ccc(Cl)c(F)c4F)n2)OC[C@]3(C)C(N)=O)C2CC2)cc2cn(C(F)F)nc12 [Example 684] ) has EC50 equal to < 500 nM

Measured EC50, COc1cc(C(=O)NC[C@](O)(c2nc(-c3cc(Cl)c(F)cc3F)c3c(c2Cl)[C@@](C)(C(N)=O)CO3)C2CC2)cc2cn(C3CC3)nc12 [Example 1081] : < 500 nM

Briefly, EC50 measured for COc1cc(C(=O)NC[C@](O)(c2cc3c(c(-c4cc(F)c(F)c(Cl)c4)n2)OC[C@]3(C)C(N)=O)C2CC2)cc2cc(Br)cnc12 [Example 789] : < 500 nM

compound COc1cc(C(=O)NC[C@](O)(c2cc3c(c(-c4ccc(F)c(F)c4F)n2)OC[C@@]3(C(N)=O)C(F)F)C(F)(F)F)cc2cc(Cl)c(C)nc12 [Example 1041] , EC50 observed: < 500 nM

Documented EC50 of COc1cc(C(=O)NC[C@](O)(c2cc3c(c(-c4ccc5c(c4)OC(F)(F)O5)n2)OC[C@@]3(C(N)=O)C(F)F)C(F)(F)F)cc2cn(C3CC3)nc12 [Example 1035] : < 500 nM

For C[C@]1(C(N)=O)COc2c1cc([C@@](O)(CNC(=O)c1ccc3nn(C4CC4)cc3c1)C1CC1)nc2-c1ccc2c(c1)OC(F)(F)O2 [Example 831] the compound record lists EC50 as < 500 nM

The compound listed as Cc1cnc2c(OC(F)F)cc(C(=O)NC[C@](O)(c3cc4c(c(-c5ccc(F)c(Cl)c5F)n3)OC[C@]4(C)C(N)=O)C3(F)CC3)cc2c1 [Example 753] shows EC50 equal to < 500 nM

The measured EC50 associated with COc1cc(C(=O)NC[C@](O)(c2nc(-c3ccc4c(c3)OC(F)(F)O4)c3c(c2F)[C@](C)(C(N)=O)CO3)C2CC2)cc2cc(Cl)c(C)nc12 [Example 867] reads > 500 nM

Entry under test: COc1cc(C(=O)NC[C@](O)(c2nc(-c3ccc4c(c3)OC(F)(F)O4)c3c(c2F)[C@](C)(C(N)=O)CO3)C2CC2)cc2cn(C3(F)CC3)nc12 [Example 865] . Its EC50 was > 500 nM
